assay: Half-lives and pharmacokinetic parameters of polypeptides vs HM-1; settings: in vivo
Peptide text beside a SMILES is read from it. * marks the point of attachment. X44 = O=C1C=CC(=O)N1c1ccc(CCCCCCCC(=O)*)cc1; X77 = O=C1C=CC(=O)N1CCCCCCCCCCC(=O)*

>  <compound>
C[C@H](NC(=O)CNC(=O)[C@H](CCCNC(=N)N)NC(=O)CCCCCCCc1ccc(N2C(=O)C=CC2=O)cc1)C(=O)N[C@@H](CC(=O)O)C(=O)N[C@@H](CCCNC(=N)N)C(=O)N[C@@H](C)C(=O)NCC(=O)NCC(=O)NCC(=O)NCC(=O)N[C@@H](CCCNC(=N)N)C(=O)NCC(=O)N[C@@H](CC(=O)O)C(=O)O [X43] (X44-RGADRAGGGGRGD-OH)

>  <clearance (mL/min/kg)>
0.623

$$$$
>  <compound>
C[C@H](NC(=O)CNC(=O)[C@H](CCCNC(=N)N)NC(=O)CCCCCCCCCCN1C(=O)C=CC1=O)C(=O)N[C@@H](CC(=O)O)C(=O)N[C@@H](CCCNC(=N)N)C(=O)N[C@@H](C)C(=O)NCC(=O)NCC(=O)NCC(=O)NCC(=O)N[C@@H](CCCNC(=N)N)C(=O)NCC(=O)N[C@@H](CC(=O)O)C(=O)O [X10] (X77-RGADRAGGGGRGD-OH)

>  <clearance (mL/min/kg)>
0.535

$$$$
